Listed here are molecules together with their documented AUC(0-t) at 24 h.
# test_summary: AUC (0 to t) in Sprague-Dawley rat at 3.5 mg/kg, ip measured for 24 hrs by LC-MS/MS analysis
# Format: ADME, organism-based
# measurement_context: in vivo
The answer is to be given in µg·h/mL; state only the numeric part.

Cc1ccc(Nc2nccc(-c3cn(C)c4ccccc34)n2)cc1N.Cl; 1.51

Could you now consider this next molecule?
Q. Any idea what AUC(0-t) at 24 h was measured for Cl.Cn1cc(-c2ccnc(Nc3cccc(N)c3)n2)c2ccccc21 ?
A. 0.407

====

This section presents molecules with their documented half-life values.
# test_summary: Half life in Sprague-Dawley rat at 3.5 mg/kg, iv measured for 24 hrs by LC-MS/MS analysis
# Format: ADME, organism-based
# measurement_context: in vivo
Please respond with the number in h and leave the unit unwritten.

Cl.Cn1cc(-c2ccnc(Nc3cccc(N)c3)n2)c2ccccc21; 8.29

Turning now to a further record.
Q. I'd like to know its half-life. The molecule in question is Cc1ccc(Nc2nccc(-c3cn(C)c4ccccc34)n2)cc1N.Cl
A. 5.06

====

# test_summary: Anti-inflammatory activity against HBE cells assessed as inhibition of LPS-induced IL-8 level at 5 uM pretreated for 30 mins followed by LPS treatment for 24 hrs by ELISA relative to control
# Assay type: functional
# measurement_context: Homo sapiens, time 24.5 hrs
inhibition at 5 µM listing for selected compounds.
The figure you give is taken to be in %; do not add the unit.

Q. Consider the compound shown here: Cn1cc(-c2ccnc(Nc3ncccn3)n2)c2ccccc21 What is its recorded inhibition at 5 µM?
A. 12

Q. What about this compound? Cn1cc(-c2ccnc(Nc3cccc(C(F)(F)F)c3)n2)c2ccccc21
A. 56

Q. Entry Cn1cc(-c2ccnc(Nc3ccccc3N)n2)c2ccccc21 please
A. 69

Q. How about this compound: Cn1cc(-c2ccnc(Nc3cccc(C#N)c3)n2)c2ccccc21
A. 56

Q. What about this compound? Cn1cc(-c2ccnc(Nc3ccc(C(F)(F)F)cc3)n2)c2ccccc21
A. 56
